Recorded measurements of melting temperature, one per entry
Test system: HeLa Kyoto;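 also: HeLa Kyoto cells synchronized by double thymidine or nocodazole block, proteins quantified by TMT10plex mass spectrometry, three independent biological replicates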
procedure.summary: melting temperature (median over replicates), in situ; higher = more thermally stable
experimental.parameters: cell cycle stage: G1/S
Express the result in °C but write the number alone.

Example results:
sequence.data | property.label | readout.number
MASGTTTTAVKIGIIGGTGLDDPEILEGRTEKYVDTPFGKPSDALILGKIKNVDCVLLARHGRQHTIMPSKVNYQANIWALKEEGCTHVIVTTACGSLREEIQPGDIVIIDQFIDRTTMRPQSFYDGSHSCARGVCHIPMAEPFCPKTREVLIETAKKLGLRCHSKGTMVTIEGPRFSSRAESFMFRTWGADVINMTTVPEVVLAKEAGICYASIAMATDYDCWKEHEEAVSVDRVLKTLKENANKAKSLLLTTIPQIGSTEWSETLHNLKNMAQFSVLLPRH [MTAP] | melting temperature | 60
MPVAGSELPRRPLPPAAQERDAEPRPPHGELQYLGQIQHILRCGVRKDDRTGTGTLSVFGMQARYSLRDEFPLLTTKRVFWKGVLEELLWFIKGSTNAKELSSKGVKIWDANGSRDFLDSLGFSTREEGDLGPVYGFQWRHFGAEYRDMESDYSGQGVDQLQRVIDTIKTNPDDRRIIMCAWNPRDLPLMALPPCHALCQFYVVNSELSCQLYQRSGDMGLGVPFNIASYALLTYMIAHITGLKPGDFIHTLGDAHIYLNHIEPLKIQLQREPRPFPKLRILRKVEKIDDFKAEDFQIEGYNPHPTIKMEMAV [TYMS] | melting temperature | 49.2
MPVKGGTKCIKYLLFGFNFIFWLAGIAVLAIGLWLRFDSQTKSIFEQETNNNNSSFYTGVYILIGAGALMMLVGFLGCCGAVQESQCMLGLFFGFLLVIFAIEIAAAIWGYSHKDEVIKEVQEFYKDTYNKLKTKDEPQRETLKAIHYALNCCGLAGGVEQFISDICPKKDVLETFTVKSCPDAIKEVFDNKFHIIGAVGIGIAVVMIFGMIFSMILCCAIRRNREMV [CD9] | melting temperature | 62.4
MENHKSNNKENITIVDISRKINQLPEAERNLLENGSVYVGLNAALCGLIANSLFRRILNVTKARIAAGLPMAGIPFLTTDLTYRCFVSFPLNTGDLDCETCTITRSGLTGLVIGGLYPVFLAIPVNGGLAARYQSALLPHKGNILSYWIRTSKPVFRKMLFPILLQTMFSAYLGSEQYKLLIKALQLSEPGKEIH [TMEM126A] | melting temperature | 52.8
MAASSISSPWGKHVFKAILMVLVALILLHSALAQSRRDFAPPGQQKREAPVDVLTQIGRSVRGTLDAWIGPETMHLVSESSSQVLWAISSAISVAFFALSGIAAQLLNALGLAGDYLAQGLKLSPGQVQTFLLWGAGALVVYWLLSLLLGLVLALLGRILWGLKLVIFLAGFVALMRSVPDPSTRALLLLALLILYALLSRLTGSRASGAQLEAKVRGLERQVEELRWRQRRAAKGARSVEEE [TMEM109] | melting temperature | 54.6

Query: Would you mind telling me what melting temperature value was observed for MNPSMKQKQEEIKENIKNSSVPRRTLKMIQPSASGSLVGRENELSAGLSKRKHRNDHLTSTTSSPGVIVPESSENKNLGGVTQESFDLMIKENPSSQYWKEVAEKRRKALYEALKENEKLHKEIEQKDNEIARLKKENKELAEVAEHVQYMAELIERLNGEPLDNFESLDNQEFDSEEETVEDSLVEDSEIGTCAEGTVSSSTDAKPCI [GMNN] ?
Response: 57.5

Query: Same for MDLRQFLMCLSLCTAFALSKPTEKKDRVHHEPQLSDKVHNDAQSFDYDHDAFLGAEEAKTFDQLTPEESKERLGKIVSKIDGDKDGFVTVDELKDWIKFAQKRWIYEDVERQWKGHDLNEDGLVSWEEYKNATYGYVLDDPDPDDGFNYKQMMVRDERRFKMADKDGDLIATKEEFTAFLHPEEYDYMKDIVVQETMEDIDKNADGFIDLEEYIGDMYSHDGNTDEPEWVKTEREQFVEFRDKNRDGKMDKEETKDWILPSDYDHAEAEARHLVYESDQNKDGKLTKEEIVDKYDLFVGSQATDFGEALVRHDEF [CALU]
Response: 57.8

Query: Same for MWGACKVKVHDSLATISITLRRYLRLGATMAKSKFEYVRDFEADDTCLAHCWVVVRLDGRNFHRFAEKHNFAKPNDSRALQLMTKCAQTVMEELEDIVIAYGQSDEYSFVFKRKTNWFKRRASKFMTHVASQFASSYVFYWRDYFEDQPLLYPPGFDGRVVVYPSNQTLKDYLSWRQADCHINNLYNTVFWALIQQSGLTPVQAQGRLQGTLAADKNEILFSEFNINYNNELPMYRKGTVLIWQKVDEVMTKEIKLPTEMEGKKMAVTRTRTKPVPLHCDIIGDAFWKEHPEILDEDS [THG1L]
Response: 53.3

Query: Same for MGAPLLSPGWGAGAAGRRWWMLLAPLLPALLLVRPAGALVEGLYCGTRDCYEVLGVSRSAGKAEIARAYRQLARRYHPDRYRPQPGDEGPGRTPQSAEEAFLLVATAYETLKDEETRKDYDYMLDHPEEYYSHYYHYYSRRLAPKVDVRVVILVSVCAISVFQFFSWWNSYNKAISYLATVPKYRIQATEIAKQQGLLKKAKEKGKNKKSKEEIRDEEENIIKNIIKSKIDIKGGYQKPQICDLLLFQIILAPFHLCSYIVWYCRWIYNFNIKGKEYGEEERLYIIRKSMKMSKSQFDSLEDHQKETFLKRELWIKENYEVYKQEQEEELKKKLANDPRWKRYRRWMKNEGPGRLTFVDD [DNAJC25]
Response: 50.5

Query: Same for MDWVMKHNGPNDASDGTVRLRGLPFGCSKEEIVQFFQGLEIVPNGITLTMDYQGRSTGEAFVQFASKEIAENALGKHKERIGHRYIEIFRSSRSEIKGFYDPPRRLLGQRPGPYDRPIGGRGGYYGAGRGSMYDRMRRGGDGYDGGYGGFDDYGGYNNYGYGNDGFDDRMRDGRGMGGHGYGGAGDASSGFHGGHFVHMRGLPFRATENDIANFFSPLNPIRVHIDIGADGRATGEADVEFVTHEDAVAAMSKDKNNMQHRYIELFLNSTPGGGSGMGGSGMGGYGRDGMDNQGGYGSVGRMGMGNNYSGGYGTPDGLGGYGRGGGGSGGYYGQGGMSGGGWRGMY [HNRNPH3]
Response: 45.4
